Where do these numbers come from? They come from patent US20040087653A1.

# Test system: human primary airway epithelial cells
# measurement-protocol: Nitrite in media of cytokine-stimulated human primary airway epithelial cells
# Format: cell-based
# measurement-setup: cells cultured 24 h with 50 ng/ml IL-1β, TNF-α and IFN-γ; read-out: IC50, inhibition of the increase in nitrite in the media
readout-name: IC50

Q: Please report the measured IC50 for CC(=N)NCCCC[C@H](N)C(=O)O [L-NIL]
Ans: ~5.7 µM

###

# Tested on: nitrite production in human cartilage explants
# measurement-protocol: Human cartilage explant assay (IL-1 induced nitrite production)
# Assay type: cell-based
# measurement-setup: inhibition of nitrite production, IL-1 stimulated explants
Structures can show the parent of a compound that is named as a salt.
readout-name: pIC50
Numbers only, as −log10 of the molar value.

Q: Give reported pIC50 for COC[C@](N)(CSCCNC(C)=N)C(=O)O [Example J, dihydrochloride] (nitrite production in human cartilage explants)
Ans: 5.09
